- Measurement Protocol: chemical genetic growth profiling, strain panel (AID 1159580);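 also: tested at 20 µM; growth read once vehicle control cultures reached saturation at 30 °C; 1 = growth at the plate median or of vehicle wells; lower values mean less growth of the strain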
- Experimental Setup: S. cerevisiae deletion strains, growth OD, locus YDR334W, strain swr1, active compounds read low
Screen size: about 5,500 compounds; about 2,000 (36%) were called active. Not shown: some 18% with an inconclusive outcome. This is one part of the list.
Measurement Kind: normalized growth

{"Compound": "O=c1c(O)c(-c2ccc(O)c(O)c2)oc2cc(O)ccc12", "Measurement Kind": "normalized growth", "Number": 0.981}
{"Compound": "NC1C[C@H]1c1ccccc1 (some centres undefined)", "Measurement Kind": "normalized growth", "Number": 0.993}
{"Compound": "O=C(O)c1cc(=O)c2c(Cl)cc(Cl)cc2[nH]1", "Measurement Kind": "normalized growth", "Number": 1.01}
{"Compound": "OC(c1cc(C(F)(F)F)nc2c(C(F)(F)F)cccc12)C1CCCCN1 (centres undefined)", "Measurement Kind": "normalized growth", "Number": 1.01}
{"Compound": "CC[C@H]1OC(=O)[C@H](C)[C@@H](O[C@H]2C[C@@](C)(OC)[C@@H](O)[C@H](C)O2)[C@H](C)[C@@H](O[C@@H]2O[C@H](C)C[C@H](N(C)C)[C@H]2O)[C@](C)(O)C[C@@H](C)[C@@H]2N[C@@H](COCCOC)O[C@H]([C@H]2C)[C@]1(C)O", "Measurement Kind": "normalized growth", "Number": 0.986}
{"Compound": "COc1cnc(NS(=O)(=O)c2ccc(N)cc2)nc1", "Measurement Kind": "normalized growth", "Number": 0.998}
{"Compound": "Cc1onc(-c2ccccc2)c1C(=O)NC1C(=O)N2[C@@H]1SC(C)(C)[C@@H]2C(=O)O (some centres undefined)", "Measurement Kind": "normalized growth", "Number": 1.02}
{"Compound": "COc1cc(NS(=O)(=O)c2ccc(N)cc2)ncn1", "Measurement Kind": "normalized growth", "Number": 0.948}
{"Compound": "CCC1(CC)C(=O)C=CNC1=O", "Measurement Kind": "normalized growth", "Number": 0.959}
{"Compound": "CN1CCN(CC(=O)N2c3ccccc3C(=O)Nc3cccnc32)CC1", "Measurement Kind": "normalized growth", "Number": 1.04}
{"Compound": "CC1(C)S[C@@H]2[C@H](NC(=O)[C@H](C(=O)O)c3cccs3)C(=O)N2[C@H]1C(=O)O", "Measurement Kind": "normalized growth", "Number": 1}
{"Compound": "C=C(C)[C@@H]1CC[C@]2(CO)CC[C@]3(C)[C@H](CCC4[C@@]5(C)CC[C@H](O)C(C)(C)C5CC[C@]43C)C12 (some centres undefined)", "Measurement Kind": "normalized growth", "Number": 0.996}
{"Compound": "C=C(C)[C@H]1Cc2c(ccc3c2O[C@@H]2COc4cc(OC)c(OC)cc4[C@@H]2C3=O)O1", "Measurement Kind": "normalized growth", "Number": 1.04}
{"Compound": "COC(=O)C[C@H]1C(C)(C)[C@@H](O)[C@@H]2CC3=C4C=C(OC)O[C@@H](c5ccoc5)[C@]4(C)CCC3[C@@]1(C)C2=O (some centres undefined)", "Measurement Kind": "normalized growth", "Number": 0.978}
{"Compound": "CC(NCCC(c1ccccc1)c1ccccc1)c1ccccc1 (centres undefined)", "Measurement Kind": "normalized growth", "Number": 1.01}
{"Compound": "Cc1onc(-c2c(Cl)cccc2Cl)c1C(=O)N[C@@H]1C(=O)N2[C@@H]1SC(C)(C)[C@@H]2C(=O)O", "Measurement Kind": "normalized growth", "Number": 0.948}
{"Compound": "CC1(C)S[C@@H]2[C@H](NC(=O)Cc3ccccc3)C(=O)N2[C@H]1C(=O)O", "Measurement Kind": "normalized growth", "Number": 1.04}
{"Compound": "CC(=O)CC1CCCCN1 (centres undefined)", "Measurement Kind": "normalized growth", "Number": 1}
{"Compound": "COc1ccc(C2C(=O)c3ccccc3C2=O)cc1", "Measurement Kind": "normalized growth", "Number": 0.983}
{"Compound": "COc1ccc([C@H]2COc3c(ccc(O)c3OC)C2)c(OC)c1O", "Measurement Kind": "normalized growth", "Number": 0.962}
{"Compound": "CC(=O)NO", "Measurement Kind": "normalized growth", "Number": 0.976}
{"Compound": "CO[C@@]1(NC(=O)Cc2cccs2)C(=O)N2C(C(=O)O)=C(COC(N)=O)CS[C@@H]21", "Measurement Kind": "normalized growth", "Number": 0.97}
{"Compound": "CC(=O)OCC(=O)[C@@]12OC3(CCCC3)O[C@@H]1CC1C3CCC4=CC(=O)C=C[C@]4(C)[C@@]3(F)[C@@H](O)C[C@@]12C (some centres undefined)", "Measurement Kind": "normalized growth", "Number": 1.02}
{"Compound": "COc1ccc(C(=O)c2ccc(O)cc2)c(O)c1O", "Measurement Kind": "normalized growth", "Number": 0.952}
{"Compound": "CNS(=O)(=O)Cc1ccc2[nH]cc(CCN(C)C)c2c1", "Measurement Kind": "normalized growth", "Number": 1.02}
{"Compound": "CC(=O)OC[C@H]1O[C@@H](Oc2cc(OC(C)=O)c3c(=O)cc(-c4ccc(OC(C)=O)cc4)oc3c2)[C@H](OC(C)=O)[C@@H](OC(C)=O)[C@@H]1OC(C)=O", "Measurement Kind": "normalized growth", "Number": 0.979}
{"Compound": "CCCCCCCCCCCCCCCCCCOCC(O)CO (centres undefined)", "Measurement Kind": "normalized growth", "Number": 0.994}
{"Compound": "O=C1c2ccccc2C(=O)C1c1ccccc1", "Measurement Kind": "normalized growth", "Number": 0.996}
{"Compound": "CNCC[C@@H](Oc1ccccc1)c1ccccc1", "Measurement Kind": "normalized growth", "Number": 0.951}
{"Compound": "COc1ccc(C(=O)c2ccccc2)c(O)c1O", "Measurement Kind": "normalized growth", "Number": 0.951}
{"Compound": "COc1ccc(-c2oc3ccccc3c(=O)c2O)cc1OC", "Measurement Kind": "normalized growth", "Number": 0.524}
{"Compound": "CN(C)CCc1c[nH]c2ccc(CS(=O)(=O)N3CCCC3)cc12", "Measurement Kind": "normalized growth", "Number": 0.949}
{"Compound": "C1CCC(C(CC2CCCCN2)C2CCCCC2)CC1 (centres undefined)", "Measurement Kind": "normalized growth", "Number": 0.972}
{"Compound": "CCOc1ccc(C(=O)c2cc(O)c(OC)c(OC)c2O)cc1", "Measurement Kind": "normalized growth", "Number": 0.987}

* * *

- Measurement Protocol: chemical genetic growth profiling, strain panel (AID 1159580);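 also: tested at 20 µM; growth read once vehicle control cultures reached saturation at 30 °C; 1 = growth at the plate median or of vehicle wells; lower values mean less growth of the strain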
- Experimental Setup: S. cerevisiae deletion strains, growth OD, locus YML094W, strain GIM5
In all, about 5,500 compounds went through this assay and about 2,000 (36%) were called active. Inconclusive results (about 18%) are left out. Cut-off read from the data, not from the text of the source: active = normalized growth mostly below about 0.91 (no sharp cut-off); inconclusive = no clear call, values can overlap the other calls; inactive = mostly above about 0.92. The list shows a part of the results.
Labels: class 1 = active, class 0 = inactive

{"Compound": "COc1cccc(Nc2nc3ccccc3s2)c1", "Discrete Label": "class 1"}
{"Compound": "C=CCn1c(COc2c(Br)cc(C)c3c2CCC3)n[nH]c1=S", "Discrete Label": "class 1"}
{"Compound": "CC(=O)c1cc2ccccc2oc1=O", "Discrete Label": "class 0"}
{"Compound": "COc1cc(C=Nc2ccc(F)cc2)cc(OC)c1OC", "Discrete Label": "class 0"}
{"Compound": "CCC(=O)Nc1cc(OC)cc(OC)c1", "Discrete Label": "class 0"}
{"Compound": "COc1cc(/C=N\\NC(=S)NC2CC3CCC2C3)cc(OC)c1OC (stereo unspecified)", "Discrete Label": "class 0"}
{"Compound": "CN(C)/C=C1/C(=O)NN=C1CSc1ccccn1", "Discrete Label": "class 0"}
{"Compound": "CC(=O)c1cc2cc(Br)ccc2oc1=O", "Discrete Label": "class 0"}
{"Compound": "CC(C)(C)c1ccc(CSc2nc(N)cc(=O)[nH]2)cc1", "Discrete Label": "class 0"}
{"Compound": "CC(C)(C)c1cc(-c2cc(C(F)(F)F)[nH]n2)c2c(c1)C(C)(C)CC2", "Discrete Label": "class 0"}
{"Compound": "NS(=O)(=O)c1ccc(-n2ncc3ccccc3c2=O)cc1", "Discrete Label": "class 0"}
{"Compound": "O=c1cc(C(F)(F)F)[nH]c2c(Cl)cccc12", "Discrete Label": "class 0"}
{"Compound": "CC(=O)NC(=O)/C(C#N)=C/N1CCN(Cc2ccccc2)CC1", "Discrete Label": "class 0"}
{"Compound": "CNS(=O)(=O)c1cc(Br)ccc1S(=O)c1ccccc1C(=O)O (stereo unspecified)", "Discrete Label": "class 1"}
{"Compound": "CSc1nc(N)nc(N2CCCCC2)n1", "Discrete Label": "class 0"}
{"Compound": "Cc1nn(-c2ccccc2)nc1C(=O)NNC(=S)Nc1ccc(Cl)cc1", "Discrete Label": "class 0"}
{"Compound": "O=C1C=C(Cl)CC(c2ccc(C(F)(F)F)cc2)C1 (stereo unspecified)", "Discrete Label": "class 0"}
{"Compound": "CC(=O)Nc1cc2ccccc2oc1=O", "Discrete Label": "class 0"}
{"Compound": "CN(C(=O)Nc1ccccc1)n1cnc2ccccc2c1=O", "Discrete Label": "class 0"}
{"Compound": "O=C(O)c1nccnc1C(=O)O", "Discrete Label": "class 0"}
{"Compound": "Cc1ccc(-c2nn(-c3ccccc3)c(=O)c3ccccc23)cc1C", "Discrete Label": "class 0"}
{"Compound": "O=c1cc(C(F)(F)F)[nH]c2cc(Cl)cc(Cl)c12", "Discrete Label": "class 1"}
{"Compound": "O=C(Nc1cccnc1)c1cccc(Cl)c1Cl", "Discrete Label": "class 0"}
{"Compound": "COc1cc(OC)cc(N2C(=O)C=CC2=O)c1", "Discrete Label": "class 1"}
{"Compound": "Cc1ccc(N=Cc2cccs2)cc1Cl", "Discrete Label": "class 0"}
{"Compound": "CC(C)(C)c1ccc(-c2cc(N)c(C(N)=O)s2)cc1", "Discrete Label": "class 0"}
